We begin with a simple list: items and their reported IC50.
System: PC3 prostate carcinoma cells
Type: cell-based, human
Conditions: PC3, 1 h of treatment; read-out: IC50 ± SD, antiadhesive effect to vitronectin

[
  {
    "MOLECULE": "CC[C@@]1(O)C(=O)OCc2c1cc1n(c2=O)Cc2c-1nc1ccccc1c2C=NOCCNC(=O)OCc1ccc(NC(=O)[C@H](CCCCN)NC(=O)[C@H](Cc2ccccc2)NC(=O)COCCOCCOCC(=O)NCc2ccc(C[C@@H]3NC(=O)[C@@H](Cc4ccccc4)NC(=O)[C@H](CC(=O)O)NC(=O)CNC(=O)[C@H](CCCNC(=N)N)NC3=O)cc2)cc1 [ST3280]",
    "IC50": "1800 nM"
  },
  {
    "MOLECULE": "CC[C@@]1(O)C(=O)OCc2c1cc1n(c2=O)Cc2c-1nc1ccccc1c2C=NOCCNC(=O)OCc1ccc(NC(=O)[C@H](CCCNC(N)=O)NC(=O)[C@H](C)NC(=O)c2cn(CCOCCOCCOCCC(=O)NCc3ccc(C[C@@H]4NC(=O)[C@@H](Cc5ccccc5)NC(=O)[C@H](CC(=O)O)NC(=O)CNC(=O)[C@H](CCCNC(=N)N)NC4=O)cc3)nn2)cc1 [ST4167]",
    "IC50": "560 nM"
  },
  {
    "MOLECULE": "CC[C@@]1(O)C(=O)OCc2c1cc1n(c2=O)Cc2c-1nc1ccccc1c2C=NOCCNC(=O)OCc1ccc(NC(=O)[C@H](CCCNC(N)=O)NC(=O)[C@H](C)NC(=O)COCCOCCOCC(=O)NCc2ccc(C[C@@H]3NC(=O)[C@@H](Cc4ccccc4)NC(=O)[C@H](CC(=O)O)NC(=O)CNC(=O)[C@H](CCCNC(=N)N)NC3=O)cc2)cc1 [ST3833]",
    "IC50": "2100 nM"
  }
]

----------
We begin with a simple list: items and their reported IC50.
Test system: A2780 ovarian carcinoma cells
Format: cell-based, human
Conditions: A2780, 1 h of treatment; read-out: IC50 ± SD, antiadhesive effect to vitronectin

[
  {
    "SUBSTANCE_SMILES": "CC[C@@]1(O)C(=O)OCc2c1cc1n(c2=O)Cc2c-1nc1ccccc1c2C=NOCCNC(=O)OCc1ccc(NC(=O)[C@H](CCCCN)NC(=O)[C@H](Cc2ccccc2)NC(=O)COCCOCCOCC(=O)NCc2ccc(C[C@@H]3NC(=O)[C@@H](Cc4ccccc4)NC(=O)[C@H](CC(=O)O)NC(=O)CNC(=O)[C@H](CCCNC(=N)N)NC3=O)cc2)cc1",
    "ASSAY_TARGET": "A2780 ovarian carcinoma cells",
    "IC50, µM": 2.7
  },
  {
    "SUBSTANCE_SMILES": "CC[C@@]1(O)C(=O)OCc2c1cc1n(c2=O)Cc2c-1nc1ccccc1c2C=NOCCNC(=O)OCc1ccc(NC(=O)[C@H](CCCNC(N)=O)NC(=O)[C@H](C)NC(=O)c2cn(CCOCCOCCOCCC(=O)NCc3ccc(C[C@@H]4NC(=O)[C@@H](Cc5ccccc5)NC(=O)[C@H](CC(=O)O)NC(=O)CNC(=O)[C@H](CCCNC(=N)N)NC4=O)cc3)nn2)cc1",
    "ASSAY_TARGET": "A2780 ovarian carcinoma cells",
    "IC50, µM": 0.67
  },
  {
    "SUBSTANCE_SMILES": "CC[C@@]1(O)C(=O)OCc2c1cc1n(c2=O)Cc2c-1nc1ccccc1c2C=NOCCNC(=O)OCc1ccc(NC(=O)[C@H](CCCNC(N)=O)NC(=O)[C@H](C)NC(=O)c2cn(CCOCCOCCOCCC(=O)N[C@@H](CCCNC(N)=O)C(=O)NCCOCCOCCOCCC(=O)NCc3ccc(C[C@@H]4NC(=O)[C@@H](Cc5ccccc5)NC(=O)[C@H](CC(=O)O)NC(=O)CNC(=O)[C@H](CCCNC(=N)N)NC4=O)cc3)nn2)cc1",
    "ASSAY_TARGET": "A2780 ovarian carcinoma cells",
    "IC50, µM": 1.7
  },
  {
    "SUBSTANCE_SMILES": "CC[C@@]1(O)C(=O)OCc2c1cc1n(c2=O)Cc2c-1nc1ccccc1c2C=NOCCNC(=O)OCc1ccc(NC(=O)[C@H](CCCNC(N)=O)NC(=O)[C@H](C)NC(=O)COCCOCCOCC(=O)NCc2ccc(C[C@@H]3NC(=O)[C@@H](Cc4ccccc4)NC(=O)[C@H](CC(=O)O)NC(=O)CNC(=O)[C@H](CCCNC(=N)N)NC3=O)cc2)cc1",
    "ASSAY_TARGET": "A2780 ovarian carcinoma cells",
    "IC50, µM": 0.9
  }
]

----------
Test system: A2780 ovarian carcinoma cells
Test: Cytotoxicity, sulphorodamine B test (A2780)
Format: cell-based, human
Conditions: A2780, 72 h of treatment; read-out: IC50 ± SD, cytotoxicity
pIC50: −log10 of the molar value.
We begin with a simple list: items and their reported pIC50.
ASSAY_METRIC: pIC50

[
  {
    "SUBSTANCE_SMILES": "CC[C@@]1(O)C(=O)OCc2c1cc1n(c2=O)Cc2c-1nc1ccccc1c2C=NOCCNC(=O)OCc1ccc(NC(=O)[C@H](CCCNC(N)=O)NC(=O)[C@H](C)NC(=O)c2cn(CCOCCOCCOCCC(=O)N[C@@H](CCCNC(N)=O)C(=O)NCCOCCOCCOCCC(=O)NCc3ccc(C[C@@H]4NC(=O)[C@@H](Cc5ccccc5)NC(=O)[C@H](CC(=O)O)NC(=O)CNC(=O)[C@H](CCCNC(=N)N)NC4=O)cc3)nn2)cc1",
    "READOUT_VALUE": 8.05
  },
  {
    "SUBSTANCE_SMILES": "CC[C@@]1(O)C(=O)OCc2c1cc1n(c2=O)Cc2c-1nc1ccccc1c2C=NOCCNC(=O)OCc1ccc(NC(=O)[C@H](CCCNC(N)=O)NC(=O)[C@H](C)NC(=O)COCCOCCOCC(=O)NCc2ccc(C[C@@H]3NC(=O)[C@@H](Cc4ccccc4)NC(=O)[C@H](CC(=O)O)NC(=O)CNC(=O)[C@H](CCCNC(=N)N)NC3=O)cc2)cc1",
    "READOUT_VALUE": 7.02
  },
  {
    "SUBSTANCE_SMILES": "CC[C@@]1(O)C(=O)OCc2c1cc1n(c2=O)Cc2c-1nc1ccccc1c2C=NOCCNC(=O)OCc1ccc(NC(=O)[C@H](CCCCN)NC(=O)[C@H](Cc2ccccc2)NC(=O)COCCOCCOCC(=O)NCc2ccc(C[C@@H]3NC(=O)[C@@H](Cc4ccccc4)NC(=O)[C@H](CC(=O)O)NC(=O)CNC(=O)[C@H](CCCNC(=N)N)NC3=O)cc2)cc1",
    "READOUT_VALUE": 8.08
  },
  {
    "SUBSTANCE_SMILES": "CC[C@@]1(O)C(=O)OCc2c1cc1n(c2=O)Cc2c-1nc1ccccc1c2C=NOCCNC(=O)OCc1ccc(NC(=O)[C@H](CCCNC(N)=O)NC(=O)[C@H](C)NC(=O)c2cn(CCOCCOCCOCCC(=O)NCc3ccc(C[C@@H]4NC(=O)[C@@H](Cc5ccccc5)NC(=O)[C@H](CC(=O)O)NC(=O)CNC(=O)[C@H](CCCNC(=N)N)NC4=O)cc3)nn2)cc1",
    "READOUT_VALUE": 7.52
  }
]

----------
We begin with a simple list: items and their reported pIC50.
System: PC3 prostate carcinoma cells
Experiment: Cytotoxicity, sulphorodamine B test (PC3)
Assay type: cell-based, human
Details: PC3, 72 h of treatment; read-out: IC50 ± SD, cytotoxicity
pIC50: −log10 of the molar value.
ASSAY_METRIC: pIC50

[
  {
    "SUBSTANCE_SMILES": "CC[C@@]1(O)C(=O)OCc2c1cc1n(c2=O)Cc2c-1nc1ccccc1c2C=NOCCNC(=O)OCc1ccc(NC(=O)[C@H](CCCNC(N)=O)NC(=O)[C@H](C)NC(=O)c2cn(CCOCCOCCOCCC(=O)NCc3ccc(C[C@@H]4NC(=O)[C@@H](Cc5ccccc5)NC(=O)[C@H](CC(=O)O)NC(=O)CNC(=O)[C@H](CCCNC(=N)N)NC4=O)cc3)nn2)cc1",
    "ASSAY_METRIC": "pIC50",
    "READOUT_VALUE": 6.00
  },
  {
    "SUBSTANCE_SMILES": "CC[C@@]1(O)C(=O)OCc2c1cc1n(c2=O)Cc2c-1nc1ccccc1c2C=NOCCNC(=O)OCc1ccc(NC(=O)[C@H](CCCNC(N)=O)NC(=O)[C@H](C)NC(=O)c2cn(CCOCCOCCOCCC(=O)N[C@@H](CCCNC(N)=O)C(=O)NCCOCCOCCOCCC(=O)NCc3ccc(C[C@@H]4NC(=O)[C@@H](Cc5ccccc5)NC(=O)[C@H](CC(=O)O)NC(=O)CNC(=O)[C@H](CCCNC(=N)N)NC4=O)cc3)nn2)cc1",
    "ASSAY_METRIC": "pIC50",
    "READOUT_VALUE": 5.60
  },
  {
    "SUBSTANCE_SMILES": "CC[C@@]1(O)C(=O)OCc2c1cc1n(c2=O)Cc2c-1nc1ccccc1c2C=NOCCNC(=O)OCc1ccc(NC(=O)[C@H](CCCCN)NC(=O)[C@H](Cc2ccccc2)NC(=O)COCCOCCOCC(=O)NCc2ccc(C[C@@H]3NC(=O)[C@@H](Cc4ccccc4)NC(=O)[C@H](CC(=O)O)NC(=O)CNC(=O)[C@H](CCCNC(=N)N)NC3=O)cc2)cc1",
    "ASSAY_METRIC": "pIC50",
    "READOUT_VALUE": 6.70
  },
  {
    "SUBSTANCE_SMILES": "CC[C@@]1(O)C(=O)OCc2c1cc1n(c2=O)Cc2c-1nc1ccccc1c2C=NOCCNC(=O)OCc1ccc(NC(=O)[C@H](CCCNC(N)=O)NC(=O)[C@H](C)NC(=O)COCCOCCOCC(=O)NCc2ccc(C[C@@H]3NC(=O)[C@@H](Cc4ccccc4)NC(=O)[C@H](CC(=O)O)NC(=O)CNC(=O)[C@H](CCCNC(=N)N)NC3=O)cc2)cc1",
    "ASSAY_METRIC": "pIC50",
    "READOUT_VALUE": 5.34
  }
]
